tested on: Rattus norvegicus; experiment: Reduction in circulating lymphocytes count in Lewis rat at 2 mg/kg, po measured at 4 hrs by hematology analyzer based analysis; assay type: functional; set-up: scale not given: the % may be the effect or the level left
Property Name: Activity (%)

{"Compound": "COCCC1CCc2cc([C@H]3CC[C@](N)(CO)C3)ccc2C1 (stereo in doubt; 21a)", "Target Or Test System": "Rattus norvegicus", "Quantitative Result": 0}
{"Compound": "COCCCCCC1CCc2cc([C@H]3CC[C@](N)(CO)C3)ccc2C1 (single isomer, unassigned; 24)", "Target Or Test System": "Rattus norvegicus", "Quantitative Result": 67}
{"Compound": "CCSCCCC1CCc2cc([C@H]3CC[C@](N)(CO)C3)ccc2C1 (single isomer, unassigned)", "Target Or Test System": "Rattus norvegicus", "Quantitative Result": 65}
{"Compound": "C=CCCOC[C@@H]1CCc2cc([C@H]3CC[C@](N)(CO)C3)ccc2C1", "Target Or Test System": "Rattus norvegicus", "Quantitative Result": 55}
{"Compound": "CCCSCC[C@@H]1CCc2cc([C@H]3CC[C@](N)(CO)C3)ccc2C1", "Target Or Test System": "Rattus norvegicus", "Quantitative Result": 63}
{"Compound": "COCCCCCC1CCc2cc([C@H]3CC[C@](N)(CO)C3)ccc2C1 (single isomer, unassigned; 23)", "Target Or Test System": "Rattus norvegicus", "Quantitative Result": 78}
{"Compound": "CCCOCCOC1CCc2cc([C@H]3CC[C@](N)(CO)C3)ccc2C1 (some centres undefined)", "Target Or Test System": "Rattus norvegicus", "Quantitative Result": 0}
{"Compound": "CCCCSCC1CCc2cc([C@H]3CC[C@](N)(CO)C3)ccc2C1 (single isomer, unassigned)", "Target Or Test System": "Rattus norvegicus", "Quantitative Result": 20}
{"Compound": "CCOCCCC1CCc2cc([C@H]3CC[C@](N)(CO)C3)ccc2C1 (single isomer, unassigned)", "Target Or Test System": "Rattus norvegicus", "Quantitative Result": 78}

---

experiment: Drug metabolism in Lewis rat blood assessed as concentration of parent compound at 1 mg/kg, po measured at 24 hrs by LC-MS/MS analysis; assay type: ADME, organism-based; details: Lewis, blood, read-out: Ct
Known concentration at 24 h of a selection of molecules
Property Name: concentration at 24 h (nM)

{"Molecule": "CC/C=C/CC[C@@H]1CCc2cc([C@H]3CC[C@](N)(CO)C3)ccc2C1", "Display Unit": "nM", "Quantitative Result": 140}
{"Molecule": "CCCCSC[C@@H]1CCc2cc([C@H]3CC[C@](N)(CO)C3)ccc2C1", "Display Unit": "nM", "Quantitative Result": 73}
{"Molecule": "CCCCCOC1CCc2cc([C@H]3CC[C@](N)(CO)C3)ccc2C1 (stereo in doubt; 10a)", "Display Unit": "nM", "Quantitative Result": 210}
{"Molecule": "CCCCCC[C@@H]1CCc2cc([C@H]3CC[C@](N)(CO)C3)ccc2C1", "Display Unit": "nM", "Quantitative Result": 51}
